# Tgt: Bifunctional dihydrofolate reductase-thymidylate synthase (Plasmodium falciparum (isolate 3D7), UniProt Q8I1R6, C59R/I164L/K96N/N51I/S108N)
# Sequence (Q8I1R6 whole entry N51I/C59R/K96N/S108N/I164L): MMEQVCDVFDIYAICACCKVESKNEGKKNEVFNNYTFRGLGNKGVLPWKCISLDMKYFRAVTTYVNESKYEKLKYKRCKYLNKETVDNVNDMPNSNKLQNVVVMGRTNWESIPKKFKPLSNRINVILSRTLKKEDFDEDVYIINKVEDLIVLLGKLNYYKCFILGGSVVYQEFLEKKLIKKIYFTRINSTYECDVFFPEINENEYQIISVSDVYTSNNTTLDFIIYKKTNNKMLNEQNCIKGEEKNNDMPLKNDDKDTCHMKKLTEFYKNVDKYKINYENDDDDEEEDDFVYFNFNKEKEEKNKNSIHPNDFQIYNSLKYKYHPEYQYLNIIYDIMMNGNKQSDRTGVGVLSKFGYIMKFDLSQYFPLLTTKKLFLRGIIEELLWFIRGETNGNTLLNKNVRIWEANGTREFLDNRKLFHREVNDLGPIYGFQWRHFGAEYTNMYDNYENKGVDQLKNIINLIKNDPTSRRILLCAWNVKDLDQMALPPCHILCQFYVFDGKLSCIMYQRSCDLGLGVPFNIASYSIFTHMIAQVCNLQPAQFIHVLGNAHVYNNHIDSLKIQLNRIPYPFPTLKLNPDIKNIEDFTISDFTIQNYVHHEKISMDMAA
# Experiment Notes: Inhibition of pyrimethamine-resistant form-2 Plasmodium falciparum N51I, C59R, S108N, I164L, K96N mutant expressed in Escherichia coli BL21(DE3) by Michaelis-Menten based competitive inhibition assay
Assay Endpoint: pKi
Kindly note that pKi refers to -log10 of the concentration in mol/L and answer with the value alone.

Looking up "CC1(C)N=C(N)N=C(N)N1OCCCOc1cc(Cl)c(Cl)cc1Cl" , I found its pKi recorded as 6.53

====

# Experiment Notes: Inhibition of Plasmodium falciparum DHFR QM template N51I, C59R, S108N, I164L mutant expressed in Escherichia coli BL21(DE3)
Assay Endpoint: IC50
Quote the value and follow it with the unit of measurement.

Looking up "CC1(C)N=C(N)N=C(N)N1OCCCOc1cc(Cl)c(Cl)cc1Cl" , I found its IC50 recorded as 50 nM

Looking up "CCc1nc(N)nc(N)c1-c1ccc(Cl)cc1" , I found its IC50 recorded as 420 nM

====

# Experiment Notes: Inhibition of WR99210-resistant form-1 Plasmodium falciparum I51N, C59R, N108S, I164L mutant expressed in Escherichia coli BL21(DE3) by Michaelis-Menten based competitive inhibition assay
Assay Endpoint: Ki (nM)
Unit nM implied. Number only.

Looking up "CCc1nc(N)nc(N)c1-c1ccc(Cl)cc1" , I found its Ki recorded as 3.57

Looking up "CC1(C)N=C(N)N=C(N)N1OCCCOc1cc(Cl)c(Cl)cc1Cl" , I found its Ki recorded as 8.09

====

# Tgt: Bifunctional dihydrofolate reductase-thymidylate synthase (Plasmodium falciparum (isolate 3D7), UniProt Q8I1R6, C59R/I164L/K96N/N51I/S108N)
# Experiment Notes: Inhibition of pyrimethamine-resistant form-2 Plasmodium falciparum N51I, C59R, S108N, I164L, K96N mutant expressed in Escherichia coli BL21(DE3)
Assay Endpoint: IC50 (nM)
Unit nM implied. Number only.

Looking up "CC1(C)N=C(N)N=C(N)N1OCCCOc1cc(Cl)c(Cl)cc1Cl" , I found its IC50 recorded as 90

====

# Experiment Notes: Inhibition of WR99210-resistant form-A Plasmodium falciparum DHFR-TS I51N, C59R, N108S, L164I, D54N mutant expressed in Escherichia coli BL21(DE3)
For each entry below, report its pIC50 value.
Kindly note that pIC50 refers to -log10 of the concentration in mol/L and answer with the value alone.

Looking up "CC1(C)N=C(N)N=C(N)N1OCCCOc1cc(Cl)c(Cl)cc1Cl" , I found its pIC50 recorded as 4.40

Looking up "CCc1nc(N)nc(N)c1-c1ccc(Cl)cc1" , I found its pIC50 recorded as 5.14

====

# Experiment Notes: Inhibition of pyrimethamine-resistant form-3 Plasmodium falciparum N51I, C59R, S108N, I164L, I150V, N182I, N201D mutant expressed in Escherichia coli BL21(DE3) by Michaelis-Menten based competitive inhibition assay
Assay Endpoint: Ki (nM)
Unit nM implied. Number only.

Looking up "CCc1nc(N)nc(N)c1-c1ccc(Cl)cc1" , I found its Ki recorded as 1.07

Looking up "CC1(C)N=C(N)N=C(N)N1OCCCOc1cc(Cl)c(Cl)cc1Cl" , I found its Ki recorded as 147
